Entries and their measured fluorescence slope follow.
ASSAYED TARGET: Voltage-gated potassium channel subunit beta-2 (Rattus norvegicus)
METHOD: inhibitors of rat Kvbeta2 reductase activity – biochemical, NADPH fluorescence, primary screen (AID 622);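 further: slope of raw intensity against log time taken from 70 to 1610 s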
APPLIED CONDITIONS: recombinant KvBeta, 4-cyanobenzaldehyde reduction, at 10 µM, stronger effect = higher value
// no unit string in output, number only

// solved cases for fluorescence slope follow
1) CC(=O)N1C(=O)C2(C(C#N)=C(N)Oc3cc(C)oc(=O)c32)c2ccccc21 (stereo unspecified) :: -0.511
2) CCOc1ccc(Cn2nnc(C(=O)Nc3ccc(OC)cc3OC)c2N)cc1 :: -0.49
3) CCc1nnc(NC(=O)c2ccc(S(=O)(=O)NCC(C)C)cc2)s1 :: -0.491
4) Cc1c(Cl)cccc1NC(=O)CCN1CCCCC1 :: -0.514
5) COc1ccc(CCN2C(=O)CC(N3CCOCC3)C2=O)cc1 (stereo unspecified) :: -0.496

Alright, here's another compound for you.
# fluorescence slope of CCC(=O)Oc1ccc(C/C(=N\O)c2ccc(O)cc2O)o1 = -0.502

---

ASSAYED TARGET: Voltage-gated potassium channel subunit beta-2 (Rattus norvegicus)
METHOD: enhancers of rat Kvbeta2 NADPH turnover – biochemical, NADPH fluorescence, primary screen (AID 623);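 further: fluorescence intensity change per second fitted from 20 to 320 s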
APPLIED CONDITIONS: Recombinant KvBeta, NADPH fluorescence decrease slope, 10 min; at 10 µM; stronger effect = lower value
Calls of active or inactive are those of the source.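 How the source made its calls: active means NADPH fluorescence slope more negative than the mean of all samples by about 3 SD, 99.7% confidence; inactive means the rest.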
MEASUREMENT KIND: NADPH fluorescence slope

// solved cases for NADPH fluorescence slope follow
1) COc1ccc(N2CCN(c3ncnc4c3cnn4-c3ccc(C)cc3C)CC2)cc1 :: -4.3e-05 (inactive)
2) CCOc1ccc2nc(Nc3nc4c(c(=O)[nH]3)CCC4)nc(C)c2c1 :: -5.3e-05 (inactive)
3) Cc1ccc(NC(=O)CC2Nc3ccccc3NC2=O)cc1Cl (centres undefined) :: -1.9e-05 (inactive)

Alright, here's another compound for you.
# NADPH fluorescence slope of CCCCOCCCNC(=O)COc1ccccc1 = -6.8e-05 (inactive)

---

METHOD: inhibitors of TNFa-induced NFkB p65 translocation, primary screen, imaging, HUVEC, MLSMR starter and 10KST1 sets (AID 438);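 further: compound added about 3h40 before a 20 min TNFalpha stimulation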
APPLIED CONDITIONS: HUVEC TNFa-induced p65 nuclear translocation; measured here: nuclei count (cytotoxicity indicator), at 2.08 µM
Classify by measured cell count: Satisfied if it is equal to or exceeds 400, Not satisfied if it is smaller.

1) O=C(CSc1nnc(Cc2ccccc2)n1C1CCCCC1)N1CCOCC1 :: Not satisfied
2) O=S(=O)(c1ccc(S(=O)(=O)N(Cc2ccco2)Cc2ccccc2Cl)cc1)N1CCCC1 :: Satisfied
3) COc1ccc(OC)c(Nc2cc(-c3ccccc3)nc(N)n2)c1 :: Satisfied
4) Clc1c(CSc2nc3ccccc3o2)nc2sccn12 :: Satisfied
5) O=S1(=O)C=C(Sc2nnc(-c3ccccc3)o2)c2ccccc21 :: Not satisfied

**Query** Is cell count for COc1ccccc1CC(=O)NCC1CCCO1 (stereo not given) at or above 400?
**Result** Not satisfied

**Query** Is cell count for CCOC(=O)C1CCCN(C(=O)c2cccs2)C1 (stereo not given) at or above 400?
**Result** Not satisfied

**Query** Is cell count for O=C(COC(=O)c1cc(S(=O)(=O)N2CCOCC2)cs1)c1ccccc1 at or above 400?
**Result** Satisfied

**Query** Is cell count for CCOC(=O)c1sc2nc(NC(=O)COc3ccccc3)sc2c1C at or above 400?
**Result** Satisfied

**Query** Is cell count for COCCCNC(=O)c1ccc(CS(=O)(=O)c2ccc(OC)cc2)o1 at or above 400?
**Result** Satisfied
